Reference source for all entries: patent US7462615B2

Target: USP8 (Homo sapiens)
Sequence (P40818 1-1118): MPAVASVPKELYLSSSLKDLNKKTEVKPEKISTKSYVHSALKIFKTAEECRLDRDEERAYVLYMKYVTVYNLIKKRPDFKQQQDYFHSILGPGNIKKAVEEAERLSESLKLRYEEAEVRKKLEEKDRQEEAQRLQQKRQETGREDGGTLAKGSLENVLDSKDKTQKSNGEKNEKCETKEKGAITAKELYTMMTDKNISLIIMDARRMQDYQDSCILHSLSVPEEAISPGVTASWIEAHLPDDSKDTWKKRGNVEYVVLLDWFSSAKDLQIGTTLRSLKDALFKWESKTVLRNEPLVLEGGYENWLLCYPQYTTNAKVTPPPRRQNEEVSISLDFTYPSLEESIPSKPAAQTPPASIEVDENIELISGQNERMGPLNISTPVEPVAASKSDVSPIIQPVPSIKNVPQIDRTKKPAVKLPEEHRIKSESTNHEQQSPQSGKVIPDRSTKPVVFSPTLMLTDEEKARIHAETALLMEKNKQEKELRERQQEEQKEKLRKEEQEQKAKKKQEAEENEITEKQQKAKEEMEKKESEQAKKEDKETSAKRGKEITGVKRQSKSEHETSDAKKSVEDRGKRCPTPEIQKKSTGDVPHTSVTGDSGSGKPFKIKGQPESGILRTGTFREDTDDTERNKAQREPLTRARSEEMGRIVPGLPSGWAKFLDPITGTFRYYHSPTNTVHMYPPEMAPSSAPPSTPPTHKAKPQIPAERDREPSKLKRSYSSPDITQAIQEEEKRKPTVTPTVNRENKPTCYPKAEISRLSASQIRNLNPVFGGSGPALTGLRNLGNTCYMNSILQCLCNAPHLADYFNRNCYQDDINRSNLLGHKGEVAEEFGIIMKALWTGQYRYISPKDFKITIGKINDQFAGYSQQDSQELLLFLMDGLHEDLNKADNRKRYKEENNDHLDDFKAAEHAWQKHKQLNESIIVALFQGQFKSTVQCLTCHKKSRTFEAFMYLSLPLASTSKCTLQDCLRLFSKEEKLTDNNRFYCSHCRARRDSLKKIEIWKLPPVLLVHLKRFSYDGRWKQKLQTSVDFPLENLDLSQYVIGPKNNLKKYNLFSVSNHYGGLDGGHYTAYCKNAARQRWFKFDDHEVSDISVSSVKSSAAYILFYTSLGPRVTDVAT
Measurement Type: IC50 (nM)
Quick note: give the figure in nM, leave out the unit.

Incoming: Dear colleague, I am looking for the recorded IC50 of the following molecule: `CC(C)Cc1nnc2nc3c(nn12)C(=O)c1ccccc1-3`
Outgoing: 538

Incoming: Dear colleague, I am looking for the recorded IC50 of the following molecule: `O=C1c2ccccc2-c2nc3nn(Cc4ccccc4)nc3nc21`
Outgoing: 15000

Incoming: Dear colleague, I am looking for the recorded IC50 of the following molecule: `Cc1nnc2nc3c(nn12)-c1ccc(Cl)cc1C3=O`
Outgoing: 119

Incoming: Dear colleague, I am looking for the recorded IC50 of the following molecule: `Nc1nnc2nc3c(nn12)-c1ccccc1C3=O`
Outgoing: 81

Incoming: Dear colleague, I am looking for the recorded IC50 of the following molecule: `CCc1nnc2nc3c(nn12)C(=O)c1ccccc1-3`
Outgoing: 537

Incoming: Dear colleague, I am looking for the recorded IC50 of the following molecule: `Cn1nc2nc3c(nc2n1)-c1ccccc1C3=O`
Outgoing: 10000

Incoming: Dear colleague, I am looking for the recorded IC50 of the following molecule: `CCCCc1nnc2nc3c(nn12)C(=O)c1ccccc1-3`
Outgoing: 830

Incoming: Dear colleague, I am looking for the recorded IC50 of the following molecule: `O=C1c2ccccc2-c2nc3nnc(CO)n3nc21`
Outgoing: 670

Incoming: Dear colleague, I am looking for the recorded IC50 of the following molecule: `CCCc1nnc2nc3c(nn12)C(=O)c1ccccc1-3`
Outgoing: 952

Incoming: Dear colleague, I am looking for the recorded IC50 of the following molecule: `O=C1c2ccccc2-c2nc3nnc(C4CC4)n3nc21`
Outgoing: 2500

Incoming: Dear colleague, I am looking for the recorded IC50 of the following molecule: `O=C1c2ccccc2-c2nc3nnc(Cc4ccccc4)n3nc21`
Outgoing: 663
